# credit: patent US6229055A

assay: Spectral properties of selected fluorinated fluoresceins and rhodols; format: physicochemical; conditions: absorption maximum
metricName: Abs. (nm)

substancesmiles=O=C1OC2(c3cc(F)c(O)cc3Oc3cc(O)c(F)cc32)c2c(F)c(F)c(F)c(F)c21 unit=nm quantitativeresult=508
substancesmiles=O=C(O)CSc1c(F)c(F)c2c(c1F)C1(OC2=O)c2cc(F)c(O)cc2Oc2cc(O)c(F)cc21 unit=nm quantitativeresult=507
substancesmiles=O=C1OC2(c3ccc(O)cc3Oc3cc(O)ccc32)c2c(F)c(F)c(F)c(F)c21 unit=nm quantitativeresult=508
substancesmiles=O=C1OC2(c3cc(F)c(O)cc3Oc3cc(O)c(F)cc32)c2ccccc21 unit=nm quantitativeresult=490
